Test system: DU-145 prostate
MEASUREMENT_PROTOCOL: NCI-60 one-dose screen, 48 h (100 = growth as untreated, 0 = no growth, -100 = all killed)
DETAILS: 10 µM unless noted
This is part of a sample that, as a whole, favours compounds with a hit. Of some 83,000 tested, about 20% had one in any assay.
Kind request: treat 80% as inclusive, so growth at 80% or higher is label 1, anything lower is label 0.

- MOLECULE: "NCCc1ccc(OCc2ccccc2)c(OCc2ccccc2)c1"
  CLASS_NAME: "label 1"
- MOLECULE: "CC1=C2C(=O)[C@H]3[C@@H](CC=C4C[C@@H](O)CC[C@@]43C)[C@@H]2CC[C@]12O[C@@H]1C[C@H](C)CN[C@H]1[C@H]2C"
  CLASS_NAME: "label 1"

Query string: Dear colleague, could you confirm whether O=C1c2ccccc2C(=O)C(Cl)C1Cl (stereo unspecified) has growth at or above 80%?
Result string: label 1

Query string: Confirm if growth reported for the molecule Cc1ccc(C(=O)OC(C(=O)O)C(OC(=O)c2ccc(C)cc2)C(=O)O)cc1 (stereo unspecified) (tested in a mixture with another compound) is 80% or above.
Result string: label 0

Query string: Please indicate if the recorded growth for COC1=C(C)C(=O)C2=C(C1=O)C(CO)N1C(C#N)C3CC4C(C1C2N1CCOC41)N3C (stereo unspecified) meets or exceeds 80%.
Result string: label 0

Query string: hey, is growth for this one >= 80%? "C[C@H]1CCC/C=C/[C@@H]2C[C@H](O)C[C@H]2[C@H](O)/C=C/C(=O)O1"
Result string: label 0

---

Test system: UACC-62 melanoma
MEASUREMENT_PROTOCOL: NCI-60 one-dose screen, 48 h (100 = growth as untreated, 0 = no growth, -100 = all killed)
DETAILS: 10 µM
The panel holds about 83,000 compounds, 20% with a hit somewhere; the sample as a whole holds those more often. Active and inactive are the calls of the source. How the source made its calls: active means growth percent below 10; inactive means the rest.
ASSAY_READOUT: growth

- COMPOUND: "CC1=C(CO)C2=C(C)C3(CC3)[C@@](C)(O)C(=O)C2=C1"
  ASSAY_READOUT: "growth"
  MEASUREMENT: "-81.5% (active)"
- COMPOUND: "Cc1cc(N=Nc2ccccc2C)ccc1N"
  ASSAY_READOUT: "growth"
  MEASUREMENT: "74% (inactive)"
- COMPOUND: "CC[C@@]1(O)C(=O)OCc2c1cc1n(c2=O)Cc2cc3ccccc3nc2-1"
  ASSAY_READOUT: "growth"
  MEASUREMENT: "-49.1% (active)"

Query string: Please provide the recorded growth for CCOC(=O)C(NC(=O)C(Cc1ccc(N(CCCl)CCCl)cc1)NC(C)=O)C(C)C (stereo not drawn) , tested on UACC-62 melanoma.
Result string: 83.1% (inactive)

Query string: Request: growth, test system UACC-62 melanoma, entry CCC1(O)CC(OC2CC(N(C)C)C(OC3CC4OC5CC(=O)C(C)OC5OC4C(C)O3)C(C)O2)c2c(cc3c(c2O)C(=O)c2c(O)ccc(O)c2C3=O)C1C(=O)OC (stereo not drawn)
Result string: -72.5% (active)

---

Test system: HOP-62 NSCLC
MEASUREMENT_PROTOCOL: NCI-60 one-dose screen, 48 h
DETAILS: 10 µM unless noted
About 83,000 compounds went through this panel and 20% of them were active in at least one assay; those are over-represented in the sample as a whole. Active and inactive are the calls of the source. Rule for the calls: active = growth percent below 10; inactive = the rest.
Valid outcomes are listed here; reply with one: active, inactive

Illustrative cases are given below, each with its answer.
- COMPOUND: "C[C@]12CC[C@H](O)CC1=CC[C@@H]1[C@@H]2CC[C@]2(C)C(=O)CC[C@@H]12"
  CLASS_NAME: "inactive"
- COMPOUND: "C[C@H]1CCC/C=C/[C@@H]2C[C@H](O)C[C@H]2[C@H](O)/C=C/C(=O)O1"
  CLASS_NAME: "active"
- COMPOUND: "CC[C@@]1(O)C(=O)OCc2c1cc1n(c2=O)Cc2cc3ccccc3nc2-1"
  CLASS_NAME: "active"

Query string: Answer briefly: the call reported for O=C1c2ccccc2C(=O)C(Cl)C1Cl (stereo not given) in this assay.
Result string: inactive

Query string: Entry "CC1=C2C(=O)[C@H]3[C@@H](CC=C4C[C@@H](O)CC[C@@]43C)[C@@H]2CC[C@]12O[C@@H]1C[C@H](C)CN[C@H]1[C@H]2C" : call = ?
Result string: inactive
